measurement_target: electric eel (Electrophorus electricus) AChE (Electrophorus electricus, UniProt O42275)
Sequence (O42275 24-633): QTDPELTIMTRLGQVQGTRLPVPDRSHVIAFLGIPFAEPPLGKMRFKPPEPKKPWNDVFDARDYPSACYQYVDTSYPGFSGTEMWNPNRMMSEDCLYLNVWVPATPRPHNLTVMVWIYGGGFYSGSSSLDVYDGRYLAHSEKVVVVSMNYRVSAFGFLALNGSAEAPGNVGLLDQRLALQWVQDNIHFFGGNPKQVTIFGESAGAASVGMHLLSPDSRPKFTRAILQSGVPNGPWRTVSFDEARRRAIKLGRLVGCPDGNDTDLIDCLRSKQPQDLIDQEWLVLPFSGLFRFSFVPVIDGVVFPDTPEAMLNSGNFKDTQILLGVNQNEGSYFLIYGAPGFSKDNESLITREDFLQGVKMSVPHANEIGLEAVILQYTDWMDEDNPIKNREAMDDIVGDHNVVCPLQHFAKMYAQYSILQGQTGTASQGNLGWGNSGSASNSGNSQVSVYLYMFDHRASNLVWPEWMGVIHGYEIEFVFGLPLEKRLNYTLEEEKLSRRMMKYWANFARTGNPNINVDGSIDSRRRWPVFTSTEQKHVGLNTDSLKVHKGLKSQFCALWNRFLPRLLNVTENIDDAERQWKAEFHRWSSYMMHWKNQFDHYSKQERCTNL
assay_summary: Acetylcholinesterase
Assay type: biochemical
assay_setup: read-out: AChE inhibitory activity
// class 0 strictly below 70% in inhibition at 250 µg/mL; class 1 otherwise

1. Cc1nc2ccccc2c(=O)n1CC(=O)Nc1ccc([N+](=O)[O-])cc1 class 1
2. Cc1nc2ccccc2c(=O)n1CC(=O)Nc1ccc(Cl)cc1 class 1
3. Cc1ccc(NC(=O)Cn2c(C)nc3ccccc3c2=O)cc1 class 1
4. Cc1nc2ccccc2c(=O)n1CC(=O)Nc1cccc(Cl)c1 class 1
5. Cc1nc2ccccc2c(=O)n1CC(=O)Nc1ccc(Br)cc1 class 0

Now for a further compound.
Query string: Evaluate Cc1ccccc1NC(=O)Cn1c(C)nc2ccccc2c1=O : inhibition at 250 µg/mL at minimum 70%?
Result string: class 1
